# melting point annotations

Examples with answers:
CN1C(=O)CC[C@]2(C)c3ccc(-c4ccc5c(c4)CCC5=O)cc3CC[C@@H]12: 175 to 178 °C
CC(=O)c1c(SSc2c(C(C)=O)c3ccccc3n2C)n(C)c2ccccc12: 178 to 180 °C
O=c1c(-c2cc(=O)c3c(O)cccc3o2)cn(-c2ccccc2)c2ccccc12: > 300 °C

Note to self: melting point recorded for CCCCCCCCN(CCCCCCCC)c1nc(Nc2ccc3nc(S)sc3c2)nc(N(CCCCCCCC)CCCCCCCC)n1 was 81 to 83 °C

Note to self: melting point recorded for CC(O)CNc1c(F)cc2c(=O)c(C(=O)O)cn(-c3cc(N)c(F)cc3F)c2c1Cl (centres undefined) was 225 to 226 °C

Note to self: melting point recorded for CCCCCCCCCCOc1ccc(C(=NO)c2cccc(C(=O)O)c2)cc1CCC(=O)O was 163 to 165 °C

Note to self: melting point recorded for C[C@@H](C(N)=O)c1ccc(NS(=O)(=O)c2cccs2)cc1 was 58 to 60 °C

Note to self: melting point recorded for N#Cc1ccc(N(Cc2ccc(OS(N)(=O)=O)cc2)n2cnnc2)cc1-c1ccco1 was 177 to 178 °C

Note to self: melting point recorded for CCCC(c1ccc(C(=O)O)cc1)N(CCC)c1nc(-c2ccc(Cl)cc2Cl)c(C)s1 (centres undefined) was 86 °C
